# credit: patent US4007276A

test: toxicity, LD50 i.p. in mice; details: mouse, in vivo, ip
MEASURED_PROPERTY: LD50 (mg/kg)
Lab book: enter the figure in mg/kg, no units written.

INPUT: # return recorded LD50 for input Nc1nc2n(n1)Cc1ccccc1-2 [2-Amino-5H-s-triazolo[5,1-a]isoindole]
OUTPUT: 600

====

tested on: female Sprague-Dawley rats; assay: anti-fertility activity in pregnant rats; assay type: in vivo, rat (Sprague-Dawley); details: 2.5 mg/kg/day s.c.
% Animals Aborting listing for selected compounds.
Lab book: enter the figure in %, no units written.

- COMPOUND: "c1ccc2c(c1)Cn1nc(-c3ccc4c(c3)OCO4)nc1-2"
  TEST_SYSTEM: "female Sprague-Dawley rats"
  OBSERVED: 66.7
- COMPOUND: "COc1cccc(-c2nc3n(n2)Cc2ccc(OC)cc2-3)c1"
  TEST_SYSTEM: "female Sprague-Dawley rats"
  OBSERVED: 57.1
- COMPOUND: "CCOc1cccc(-c2nc3n(n2)Cc2ccccc2-3)c1"
  TEST_SYSTEM: "female Sprague-Dawley rats"
  OBSERVED: 85.7
- COMPOUND: "CCCOc1cccc(-c2nc3n(n2)Cc2ccccc2-3)c1"
  TEST_SYSTEM: "female Sprague-Dawley rats"
  OBSERVED: 77.8
- COMPOUND: "c1ccc(-c2nc3n(n2)Cc2ccccc2-3)cc1 [2-Phenyl-5H-s-triazolo[5,1-a]isoindole]"
  TEST_SYSTEM: "female Sprague-Dawley rats"
  OBSERVED: 80

# ---- query compound ----
INPUT: # return recorded % Animals Aborting for input COc1cccc(-c2nc3n(n2)Cc2ccccc2-3)c1
OUTPUT: 100
